target_or_test_system: human TLR7 (Homo sapiens (Human), UniProt Q9NYK1)
Sequence (Q9NYK1 27-1049): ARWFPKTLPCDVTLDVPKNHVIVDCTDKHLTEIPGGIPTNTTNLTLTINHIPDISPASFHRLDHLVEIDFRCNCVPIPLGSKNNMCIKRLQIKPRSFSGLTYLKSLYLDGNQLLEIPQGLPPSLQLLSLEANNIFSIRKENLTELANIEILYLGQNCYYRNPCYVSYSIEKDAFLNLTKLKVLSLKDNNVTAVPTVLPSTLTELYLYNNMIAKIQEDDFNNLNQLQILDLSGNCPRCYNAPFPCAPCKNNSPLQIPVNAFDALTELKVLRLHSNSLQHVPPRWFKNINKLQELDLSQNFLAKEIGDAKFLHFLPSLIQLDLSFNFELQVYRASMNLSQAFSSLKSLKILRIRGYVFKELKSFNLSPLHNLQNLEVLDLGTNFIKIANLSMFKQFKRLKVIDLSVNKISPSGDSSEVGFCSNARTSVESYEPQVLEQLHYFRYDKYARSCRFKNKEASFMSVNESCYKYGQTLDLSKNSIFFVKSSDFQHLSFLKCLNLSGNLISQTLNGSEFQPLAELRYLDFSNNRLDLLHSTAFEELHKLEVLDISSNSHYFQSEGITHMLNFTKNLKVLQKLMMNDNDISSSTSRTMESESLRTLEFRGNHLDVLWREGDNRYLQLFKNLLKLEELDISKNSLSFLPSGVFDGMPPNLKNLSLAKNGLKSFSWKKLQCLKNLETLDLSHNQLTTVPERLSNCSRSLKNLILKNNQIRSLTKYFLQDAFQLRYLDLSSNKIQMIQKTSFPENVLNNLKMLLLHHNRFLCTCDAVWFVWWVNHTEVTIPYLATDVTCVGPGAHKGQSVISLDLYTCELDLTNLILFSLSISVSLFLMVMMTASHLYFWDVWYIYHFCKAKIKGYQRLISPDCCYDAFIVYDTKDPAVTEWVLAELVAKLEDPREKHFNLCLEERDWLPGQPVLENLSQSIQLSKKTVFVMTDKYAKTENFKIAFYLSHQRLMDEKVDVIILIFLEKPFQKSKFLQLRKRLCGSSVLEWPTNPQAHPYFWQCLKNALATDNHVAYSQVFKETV
assay_comment: TLR7 inhibition reporter assay (HEK-Blue SEAP)
Assay type: cell-based
settings: HEK-Blue cells overexpressing human TLR7, SEAP reporter, gardiquimod 7.5 μM
measured_attribute: pIC50
Give bare numbers, as −log10 of the molar value.

Below: 3 molecules and their reported pIC50.
>>> assay_value("Cc1ncc(CN(C)C2CCC(c3ccc4[nH]c(-c5cn6ncnc6c(C)c5C)c(C(C)C)c4n3)CC2)cn1 (stereo not shown)")
7.51
>>> assay_value("COc1cc(-c2[nH]c3ccc(C4CN(CC(C)(C)O)C4)nc3c2C(C)C)cn2ncnc12")
8.68
>>> assay_value("Cc1c(-c2[nH]c3ccc(C4CCN(C5COC5)CC4)nc3c2C(C)C)cn(C)c(=O)c1C")
7.62

# map each molecule to its pIC50
1. COc1cc(-c2[nH]c3ccc(CCC4CN(CC5(C)COC5)C4)nc3c2C(C)C)cn2ncnc12
2. Cc1c(-c2[nH]c3ccc(C4CCC(NCCS(N)(=O)=O)CC4)nc3c2C(C)C)cn2ncnc2c1C (stereo not shown) [Example 446]
3. Cc1cc2[nH]c(-c3cc(C)c4ncnn4c3)c(C(C)C)c2nc1C1CCN(CC(C)(C)O)CC1
4. COc1cc(-c2[nH]c3ccc(C4CC(NCC5(C)COC5)C4)nc3c2C(C)C)cn2ncnc12 (stereo not shown)

1. 8.07
2. 9.04
3. 8.34
4. 8.44

###

target_or_test_system: human TLR9 (Homo sapiens (Human), UniProt Q9NR96)
Sequence (Q9NR96 26-1032): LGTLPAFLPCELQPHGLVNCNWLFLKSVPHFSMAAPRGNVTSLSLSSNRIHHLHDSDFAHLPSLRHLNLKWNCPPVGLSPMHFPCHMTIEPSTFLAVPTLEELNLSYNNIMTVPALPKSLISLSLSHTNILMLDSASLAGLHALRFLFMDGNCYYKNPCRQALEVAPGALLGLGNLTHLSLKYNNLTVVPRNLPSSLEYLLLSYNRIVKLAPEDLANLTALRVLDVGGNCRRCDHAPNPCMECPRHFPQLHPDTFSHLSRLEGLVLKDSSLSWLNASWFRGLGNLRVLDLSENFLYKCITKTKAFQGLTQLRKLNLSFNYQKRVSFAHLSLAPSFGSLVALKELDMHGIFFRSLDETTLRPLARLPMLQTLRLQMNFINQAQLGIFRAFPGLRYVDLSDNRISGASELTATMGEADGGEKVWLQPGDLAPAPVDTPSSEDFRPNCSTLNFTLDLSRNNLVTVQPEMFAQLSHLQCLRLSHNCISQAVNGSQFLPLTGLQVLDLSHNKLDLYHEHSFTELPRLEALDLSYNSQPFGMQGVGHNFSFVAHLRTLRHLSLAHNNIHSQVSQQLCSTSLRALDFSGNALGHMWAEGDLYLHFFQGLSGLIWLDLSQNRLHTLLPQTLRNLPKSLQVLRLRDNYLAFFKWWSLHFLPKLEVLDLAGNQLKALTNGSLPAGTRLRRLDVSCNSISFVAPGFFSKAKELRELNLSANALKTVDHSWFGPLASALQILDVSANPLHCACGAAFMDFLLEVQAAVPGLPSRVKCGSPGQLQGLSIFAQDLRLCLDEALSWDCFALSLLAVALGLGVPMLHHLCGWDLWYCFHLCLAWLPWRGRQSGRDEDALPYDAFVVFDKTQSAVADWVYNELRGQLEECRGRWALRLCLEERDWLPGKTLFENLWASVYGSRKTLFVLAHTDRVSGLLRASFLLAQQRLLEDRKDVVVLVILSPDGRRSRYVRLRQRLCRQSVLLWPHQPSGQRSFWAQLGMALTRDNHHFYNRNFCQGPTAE
assay_comment: TLR9 inhibition reporter assay (HEK-Blue SEAP);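 further: SEAP driven by an IFN-β minimal promoter with NF-κB and AP-1 sites, read after 22 h, compounds dosed 0.05 nM–50 µM, inhibition scaled between agonist plus DMSO and reference-inhibitor wells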
settings: read-out: TLR9 IC50; HEK-Blue cells overexpressing human TLR9, SEAP reporter, ODN2006 5 nM
Would you kindly list log10 IC50 for each of these compounds?
All values: base-10 log of IC50 in µM.

Below: 5 compounds and their reported log10 IC50.
>>> assay_value("Cc1c(-c2[nH]c3ccc(C4CCC(N5CCN(C)C(=O)C5)CC4)nc3c2C(C)C)cn2ncnc2c1C (stereo not shown)")
1.26
>>> assay_value("COc1cc(-c2[nH]c3ccc(CCC4CN(CCS(C)(=O)=O)C4)nc3c2C(C)C)cn2ncnc12")
0.00
>>> assay_value("COc1cc(-c2[nH]c3ccc(C4CN(C(C)C)CCO4)nc3c2C(C)C)cn2ncnc12 (stereo not shown)")
1.16
>>> assay_value("COc1cc(-c2[nH]c3ccc(C4CCC(NC(=O)CN(C)C)C4)nc3c2C(C)C)cn2ncnc12 (stereo not shown)")
0.50
>>> assay_value("CCN(CC(=O)N(C)C)C1CCC(c2ccc3[nH]c(-c4cn5ncnc5c(C)c4C)c(C(C)C)c3n2)CC1 (stereo not shown) [Example 467]")
-0.38

# map each compound to its log10 IC50
1. COc1cc(-c2[nH]c3ccc(C4CC(N(C)C)C4)nc3c2C(C)C)cn2ncnc12 (stereo not shown) [Example 639]
2. Cc1cc2[nH]c(-c3cc(C)c4ncnn4c3)c(C(C)C)c2nc1C1CCN(C2CCOCC2)CC1
3. CCN(CC1(S(C)(=O)=O)CC1)C1CCC(c2ccc3[nH]c(-c4cn5ncnc5c(C)c4C)c(C(C)C)c3n2)CC1 (stereo not shown)
4. COc1cc(-c2[nH]c3ccc(C4CNCCO4)nc3c2C(C)C)cn2ncnc12 (stereo not shown) [Example 676]
5. COc1cc(-c2[nH]c3ccc(C4CN(C(=O)CCN(C)C)CCO4)nc3c2C(C)C)cn2ncnc12 (stereo not shown)

1. 0.17
2. 0.13
3. 1.07
4. 0.76
5. 0.80

Cited source for all entries: patent US10544143B2
